Experiment: qHTS of pediatric cancer cell lines to identify multiple opportunities for drug repurposing: Primary screen for Rh18 cells (AID 1347102); also: nearly all actives have a fitted effect of over 65% in size; also: potency is read from the fitted curve at half-maximal effect
Settings: Rh18 rhabdomyosarcoma viability, CellTiter-Glo luminescence, 48 h; series mostly up to 46 µM
Inconclusive results are not listed. Calls of active or inactive are those of the source. Calls follow the shape of the dose curve; as a rule, active = well fitted cell-killing curve with a large enough effect; inconclusive = small, poorly fitted or top-dose-only effect; inactive = flat fitted curve, though single readings scatter.
READOUT_TYPE: Potency

MOLECULE	READOUT_TYPE	RECORDED_MEASUREMENT
C=C1C(=O)[C@@]23C(CC[C@@H]1[C@H]2O)[C@@]12CO[C@]3(O)[C@@H](O)[C@@H]1C(C)(C)CC[C@@H]2O (stereo partly specified)	Potency	9.35 µM (active)
O=C(NCCN1CCOCC1)c1ccc(Cl)cc1	Potency	inactive
CC[C@@]1(O)C[C@H](O[C@H]2C[C@H](N(C)C)[C@H](O[C@H]3C[C@H](O)[C@H](O[C@H]4CCC(=O)[C@H](C)O4)[C@H](C)O3)[C@H](C)O2)c2c(cc3c(c2O)C(=O)c2c(O)cccc2C3=O)[C@@H]1C(=O)OC	Potency	inactive
CCCNC(=O)NS(=O)(=O)c1ccc(Cl)cc1	Potency	inactive
CNC(=O)c1ccc2cc(C3(O)CCn4cncc43)ccc2c1 (stereo unspecified)	Potency	inactive
COc1ccc(C2Sc3ccccc3N(CCN(C)C)C(=O)C2OC(C)=O)cc1 (stereo unspecified)	Potency	inactive
CO[C@H]1C[C@@H]2CC[C@@H](C)[C@@](O)(O2)C(=O)C(=O)N2CCCC[C@@H]2C(=O)O[C@H]([C@H](C)C[C@@H]2CC[C@H](OC(=O)C(C)(CO)CO)[C@H](OC)C2)CC(=O)[C@H](C)C=C(C)[C@@H](O)[C@@H](OC)C(=O)[C@H](C)C[C@H](C)C=CC=CC=C1C	Potency	29.6 µM (active)
COc1ccc(-n2c(C)c([N+](=O)[O-])c3ccc(O)cc32)cc1	Potency	inactive
C=C1C(=O)OC(CCCCCCCC)C1C(=O)O (stereo unspecified)	Potency	inactive
N#CC1(c2ccc(NC(=O)c3cccnc3NCc3ccncc3)cc2)CCCC1	Potency	inactive
Cc1ccccc1C(C(=O)NC1CCCCC1)N(C(=O)Cn1ccnc1C)c1cccc(F)c1 (stereo unspecified)	Potency	inactive
CC#CCn1c(N2CCC[C@@H](N)C2)nc2c1c(=O)n(Cc1nc(C)c3ccccc3n1)c(=O)n2C	Potency	inactive
O=C1NC(=O)C(=Cc2cccc(C(F)(F)F)c2)S1	Potency	inactive
O=c1cc(-c2ccc(O)cc2)oc2cc(O)cc(O)c12	Potency	2.35 µM (active)
C[C@]12CCC3c4ccc(O)cc4CCC3C1CCC2=O (stereo partly specified)	Potency	inactive
Nc1ncnc2c1ncn2[C@@H]1O[C@H](CO)C[C@@H]1O	Potency	inactive

Ref: PubChem BioAssay (NCATS)
